Sourced from the METLIN SMRT retention time set (Domingo-Almenara et al. 2019)

assay: gradient 5% acetonitrile 3 min, to 50% in 2 min, to 85% in 15 min, held 3 min, 100 µL/min; conditions: column: Zorbax Extend-C18 2.1 x 50 mm; eluents: water / acetonitrile, 0.1% formic acid
Observed Property: RP-LC retention time (s)

COc1ccc(Cl)cc1Nc1nc(N)nc(CN2CCN(c3ccccn3)CC2)n1	612

[A] CCCn1cc(C2=CCN(S(=O)(=O)c3c(C)nn(C)c3C)CC2)c2cccnc21
[B] CC(=O)NCc1nc2ccccc2n1CC(=O)Nc1ccccc1
Sorting ascending by RP-LC retention time, which comes first: A or B ? Refer to your chosen entry by its label in the reply.
B

* * *

experiment: gradient 5% acetonitrile 3 min, to 50% in 2 min, to 85% in 15 min, held 3 min, 100 µL/min; details: column: Zorbax Extend-C18 2.1 x 50 mm; eluents: water / acetonitrile, 0.1% formic acid
Observed Property: RP-LC retention time (s)

Please review the following examples before continuing.
O=C(c1cccn1Cc1noc(C2CC2)n1)N1CCN(c2ccccc2)CC1	946
O=S(=O)(c1ccc(Cl)s1)N1CCN(c2ccc(-n3ccnc3)nn2)CC1	593

[I] O=C(NCCN1CCN(C(=O)Cn2ccc3ccccc32)CC1)c1cccs1
[II] CCCCCNC(=O)c1ccc2c(c1)CCCN2S(C)(=O)=O
Between the two listed entries I and II , which has its RP-LC retention time at the higher number? Refer to your chosen entry by its label in the reply.
II

[I] CCN1CCn2cc(C(=O)N3CCN(c4ccccc4Cl)CC3)nc2C1
[II] CCCCOc1cccc(C(=O)N(Cc2ccc(C)o2)C2CCS(=O)(=O)C2)c1 (stereo not given)
Between the two listed entries I and II , which has its RP-LC retention time at the higher number? Refer to your chosen entry by its label in the reply.
II

* * *

assay: gradient 5% acetonitrile 3 min, to 50% in 2 min, to 85% in 15 min, held 3 min, 100 µL/min; settings: column: Zorbax Extend-C18 2.1 x 50 mm; eluents: water / acetonitrile, 0.1% formic acid
Observed Property: RP-LC retention time (s)

O=[N+]([O-])c1ccc(/C=C\c2ccncc2)cc1	685
CC(C)n1c(=O)oc2cc(-c3noc(CCc4ccccc4)n3)ccc21	1140
Brc1ccc2nc(N3CCNCC3)sc2c1	557
CCOc1ccc(C2C(=O)N(C3CCCCC3)CC(=O)N2Cc2ccco2)cc1OC (stereo not given)	879
Cc1nnc2ccc(-c3noc(Cc4cccc(Cl)c4)n3)cn12	871

* * *

assay: gradient 5% acetonitrile 3 min, to 50% in 2 min, to 85% in 15 min, held 3 min, 100 µL/min; conditions: column: Zorbax Extend-C18 2.1 x 50 mm; eluents: water / acetonitrile, 0.1% formic acid
Observed Property: RP-LC retention time (s)

Please review the following examples before continuing.
Cc1ccc(-c2csc(-n3nc(C)c(CC(=O)Nc4ccc(Br)cc4)c3C)n2)cc1	1350
Clc1nnc2c3ccccc3ccn12	747

[I] Cc1cc(C(=O)NCc2ccc(Cl)cc2)n(-c2ccccc2)n1
[II] O=C(NCCN1CCOCC1)C1c2ccccc2CC(=O)N1Cc1ccccc1 (centres undefined)
Sorting ascending by RP-LC retention time, which comes first: I or II ? Refer to your chosen entry by its label in the reply.
II

* * *

experiment: gradient 5% acetonitrile 3 min, to 50% in 2 min, to 85% in 15 min, held 3 min, 100 µL/min; settings: column: Zorbax Extend-C18 2.1 x 50 mm; eluents: water / acetonitrile, 0.1% formic acid
Observed Property: RP-LC retention time (s)

[A] O=C(CC1COc2ccccc2NC1=O)Nc1ccc2c(c1)OCCO2 (stereo not given)
[B] CCCn1c(=O)c(C)nc2cc(-c3noc(-c4ccc(Br)o4)n3)ccc21
Sorting ascending by RP-LC retention time, which comes first: A or B ? Refer to your chosen entry by its label in the reply.
A
(A: 688 s, B: 1160 s)

[1] O=C(c1ccsc1)N1CCC[C@H]1c1nc(C2CCOCC2)n[nH]1
[2] COc1ccc(NC(=O)Cn2c(=O)n(-c3ccc(C)cc3)c(=O)c3c2cc(C)n3C)c(OC)c1
Sorting ascending by RP-LC retention time, which comes first: 1 or 2 ? Refer to your chosen entry by its label in the reply.
1
